Each entry below carries its recorded EC50.
# System Name: DLL4 (human, UniProt Q9NR61)
# Sequence (Q9NR61 27-524): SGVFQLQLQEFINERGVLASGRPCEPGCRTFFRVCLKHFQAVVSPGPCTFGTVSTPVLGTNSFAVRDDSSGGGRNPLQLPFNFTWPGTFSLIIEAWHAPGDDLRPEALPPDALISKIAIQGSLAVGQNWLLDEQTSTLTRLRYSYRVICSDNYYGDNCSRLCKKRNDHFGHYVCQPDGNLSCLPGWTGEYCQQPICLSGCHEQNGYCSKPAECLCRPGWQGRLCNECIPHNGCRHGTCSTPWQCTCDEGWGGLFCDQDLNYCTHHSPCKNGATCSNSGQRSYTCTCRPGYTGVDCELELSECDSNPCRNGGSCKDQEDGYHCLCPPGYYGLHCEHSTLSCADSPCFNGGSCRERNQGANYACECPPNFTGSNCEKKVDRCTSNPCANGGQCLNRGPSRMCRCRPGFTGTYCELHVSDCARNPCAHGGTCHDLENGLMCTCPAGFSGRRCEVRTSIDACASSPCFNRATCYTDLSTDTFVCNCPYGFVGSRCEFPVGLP
# Procedure Details: ELISA
Measure: EC50 (pM)

binder="DVD524 DLL4 arm (antibody, V domains shown, DVD-Ig inner) VH: EVQLQQSGPELEKPGASVKISCKASGYSFTGYNMNWVKQSNGKSLEWIGNIDPYFGGTNYNQKFKGKATLTVDKSSSTAYMQLKSLTSEDSAVYYCARNYDYDGGCFDYWGQGTTLTVSS VL: QAVVTQESALTTSPGETVTLTCRSSTGAVTTSNYANWVQEKPDHLFTGLIGGTNNRAPGVPARFSGSLIGDKAALTITGAQTEDEAIYFCALWYSNHWVFGGGTKLTVLG" measure=EC50 measured_value=220
binder="DVD504 DLL4 arm (antibody, V domains shown, DVD-Ig inner) VH: EVQLQQSGPELVKPGASVKMSCKASGYTFTSYVINWVKQKPGQGLEWIGLINPYNDGTKYNEKFKVKATLTSDKSSSTAYMELSSLTSEDSAVYYCASYYYGSRYYFDYWGQGTTLTVSS VL: DIQMTQSSSYLSVSLGGRVTITCKASDHINNWLAWYQQKPGNAPRLLISGATSLETGVPSRFSGSGSGKDYTLSITSLQTEDVATYYCQQYWSIPLTFGAGTKLELKR" measure=EC50 measured_value=530
binder="DVD455 DLL4 arm (antibody, V domains shown, DVD-Ig outer) VH: QVQLVQSGAEVKKPGASVKISCKASGYSFTAYYIHWVKQAPGQGLEWIGYISSYNGATNYNQKFKGRVTFTTDTSTSTAYMELRSLRSDDTAVYYCARDYDYDVGMDYWGQGTLVTVSS VL: DIVMTQSPDSLAVSLGERATISCRASESVDNYGISFMKWFQQKPGQPPKLLIYAASNQGSGVPDRFSGSGSGTDFTLTISSLQAEDVAVYYCQQSKEVPWTFGGGTKVEIKR" measure=EC50 measured_value=240
